system: Saccharomyces cerevisiae; assay: protein stability index of tFT-peptide fusion (C-terminal peptide) (PSI (0-1 scale)); higher = more stable (slower turnover); settings: genetic background: wild type; temperature: 30 C;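 also: PSI is a weighted mean of sequencing reads over stability bins, variants kept only with over 10 reads, mCherry proximal and sfGFP distal, peptide attached via GGGS linker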
Each item that follows carries a reported protein stability index.
Observation Type: protein stability index

chain=TAKQDSGVSTPV assay_result=0.732
chain=LPPPPPPPPSTP assay_result=0.734
chain=RDSKDMTWISTS assay_result=0.676
chain=TASKHINYKCLA assay_result=0.711
chain=CGLGVRGRLVLS assay_result=0.625
chain=SGRSQERMYARW assay_result=0.656
chain=GRRKGGRKAREC assay_result=0.588
chain=GSRRSGITSYAN assay_result=0.687
chain=PLPFPPPPPSPY assay_result=0.655
chain=IYSGIYCVGAKH assay_result=0.666
chain=VWFFSHFCGVRF assay_result=0.686
chain=SNGYMFRRDRYV assay_result=0.686
chain=RSCPGSWFRLSV assay_result=0.699
chain=FAPPASPPARPP assay_result=0.672
chain=ERWRVYERYARG assay_result=0.692
chain=LLYSTRRCIFEF assay_result=0.645
chain=SGIWLKRVTMYR assay_result=0.703
chain=KRLKRKSNLERE assay_result=0.69
chain=GGGVGGGVGQRG assay_result=0.705
chain=EGPLVRGSGVDV assay_result=0.637
chain=VSSFALDVGFHF assay_result=0.638
chain=LRAWPILPSRVL assay_result=0.641
chain=GRVAPNANAVKF assay_result=0.607
